biological target: GFP-HTTQ74 reporter construct; test: cell-based or functional assay
measured.quantity: Reduction of Aggregation (%), filter trap assay
Please reply with the bare figure in % and do not write the unit itself.

query: Give its Reduction of Aggregation (%), filter trap assay value. Item: Construct 50, JB1-QBP1-QBP1 (17) (designed binder) MGKDYYQTLGLARGASDEEIKRAYRRQALRYHPDKNKEPGAEEKFKEIAEAYDVLSDPRKREIFDRYGEEGLKGSGGGGSGGGGSGGGGSGGGGSAAASNWKWWPGIFDLEEAAAKSRAAASNWKWWPGIFDLE
result: 90.9

query: Do the same for Construct 48, JB1-QBP1-QBP1 (15) (designed binder) MGKDYYQTLGLARGASDEEIKRAYRRQALRYHPDKNKEPGAEEKFKEIAEAYDVLSDPRKREIFDRYGEEGLKGSEAAAKSNWKWWPGIFDEAAAKEAAAKSNWKWWPGIFDLE please
result: 100

query: Do the same for Construct 47, JB1-QBP1-QBP1 (14) (designed binder) MGKDYYQTLGLARGASDEEIKRAYRRQALRYHPDKNKEPGAEEKFKEIAEAYDVLSDPRKREIFDRYGEEGLKGSEAAAKSNWKWWPGIFDGGGGSGGGGSSNWKWWPGIFDLE please
result: 99.7

query: Do the same for Construct 44, JB1-QBP1-QBP1 (11) (designed binder) MGKDYYQTLGLARGASDEEIKRAYRRQALRYHPDKNKEPGAEEKFKEIAEAYDVLSDPRKREIFDRYGEEGLKGSSNWKWWPGIFDEAAAKEAAAKSNWKWWPGIFDLE please
result: 99.6
